Listing of recorded TGI by entry.
Test system: A498 renal
Assay: NCI tumour cell line growth inhibition, 48 h
Readout Kind: TGI

                                   compound  experimental_value
0  CC(C)(C)OC(=O)CC(S(=O)(=O)c1ccccc1)S(=O)(=O)c1ccccc1             26.4 µM
1  CN(C)CCC(/C=C/c1ccccc1)=N\Nc1c(F)c(F)c(F)c(F)c1F            > 100 µM
2    O=C(Cn1ccnc1[N+](=O)[O-])NCc1ccc(F)cc1            > 100 µM
3  CN(C)CC(=O)N1CCc2c([nH]c3ccccc23)C1c1cccnc1 (centres undefined)            > 100 µM
4  COc1ccccc1CNCCCN1C(=O)c2ccc3c4c(ccc(c24)C1=O)C(=O)N(CCCNCCCCN)C3=O             2.55 µM
5  CCOC(=O)CCC(NC(=O)c1ccc(NCc2ccc3nc(OC)c(OC)nc3c2)c2ccccc12)C(=O)OCC (centres undefined)            > 100 µM
6  Cc1nc(Nc2ccc(Cl)c(Cl)c2)sc1C(/C=C/c1ccc2c(c1)OCO2)=N/Nc1ccc([N+](=O)[O-])cc1[N+](=O)[O-]            > 100 µM
7  COc1ccc2c(c1)CCC1C2CCC2(C)C(NC(=O)CCCCC3CCSS3)CCC12 (centres undefined)            > 100 µM
8          COc1ccccc1-c1cc(=O)c2cccnc2[nH]1            > 100 µM

====

Test system: SW-620 colon
Assay: NCI tumour cell line growth inhibition, 48 h
Readout Kind: TGI

>>> print(df.to_string())
                                   molecule  readout_kind  experimental_value
0                Cc1cc(Br)c(O)c(-c2cscn2)c1           TGI             31.5 µM
1  COc1ccc([C@H]2c3[nH]c4ccccc4c3C[C@H]3C(=O)N(CCCCCCC(=O)NO)CC(=O)N23)cc1           TGI           > 33.3 µM
2  CN(C)c1ccc(/C=C2\N=C(c3ccccc3)N(c3nc4ccc(Sc5ccccc5)cc4[nH]3)C2=O)cc1           TGI            > 100 µM
3  c1ccc(-c2nc3ccccc3[nH]2)c(OCCCCCOc2ccccc2-c2nc3ccccc3[nH]2)c1           TGI             12.9 µM
4             CCCCCCCCCCCCCCCC[N+](C)(C)CCl           TGI            > 100 µM
5  COc1cc2c(cc1OC)C(Sc1ccc(Cl)cc1)c1c(nc(N)c(C#N)c1N)O2 (stereo not given)           TGI             3.14 µM
6  COc1ccc(-c2nn(-c3cccc(Cl)c3)cc2-c2c(C#N)c(=O)n3[nH]c(-c4ccc(C)o4)nc3c2C#N)cc1           TGI             > 50 µM
7        CSc1ccc2c(c1)N(CCCN(C)C)c1ccccc1S2           TGI             41.8 µM
8  COc1ccc(C2C(C(=O)O)=C(COC(C)=O)Oc3cc4c(cc32)OCO4)c(OC)c1 (stereo not given)           TGI            > 100 µM
9  CC(=O)CCN1CC2CN=NC2(C#N)C1 (stereo not given)           TGI           > 55.6 µM
